# system_name: HIV-1 RT double mutant K103N/Y181C (Human immunodeficiency virus type 1 group M subtype B, UniProt P03366, K702N/Y780C)
# Construct: HIV-1 wild type reverse transcriptase as well as the clinically significant double mutant K103N/Y181C
# assay_name: biochemical
quantity_measured: IC50

- substance_smiles: "CCN1c2ncc(CCOc3ccc(C(=O)N4CCC(C(=O)O)CC4)cc3C)cc2C(=O)N(C)c2cccnc21"
  quantity_measured: "IC50"
  value: "50 to 100 nM"
- substance_smiles: "CCN1c2ncc(CCOc3ccc(-c4csc(N)n4)cc3C)cc2C(=O)N(C)c2cccnc21"
  quantity_measured: "IC50"
  value: "< 50 nM"
- substance_smiles: "CCN1c2ncc(CCOc3ccc(Nc4ccccn4)cc3C)cc2C(=O)N(C)c2cccnc21"
  quantity_measured: "IC50"
  value: "< 50 nM"

Could you now consider this next molecule?
CCN1c2ncc(CCOc3ccc(NC(=O)CC4(C(=O)O)CCCC4)cc3C)cc2C(=O)N(C)c2cccnc21 yielded IC50 of > 100 nM

###

# system_name: HIV-1 RT double mutant K103N/Y181C (Human immunodeficiency virus type 1 group M subtype B, UniProt P03366, K702N/Y780C)
# Construct: HIV-1 wild type reverse transcriptase as well as the clinically significant double mutant K103N/Y181C
# assay_name: biochemical
# assay_setup: RT double mutant K103N/Y181C; read-out: IC50 K103N/Y181C
pIC50: −log10 of the molar value.
quantity_measured: pIC50

- substance_smiles: "CCN1c2ncc(CCOc3ccc(-c4ccc(C(=O)O)cc4)cc3C)cc2C(=O)N(C)c2cccnc21"
  pIC50: "> 7.30"
- substance_smiles: "CCN1c2ncc(CCOc3ccc(-c4cccc(C(=O)O)c4)cc3)cc2C(=O)N(C)c2cccnc21"
  pIC50: "< 7.00"
- substance_smiles: "CCN1c2ncc(CCOc3ccc(-c4ccc(CC(=O)O)cc4)cc3CO)cc2C(=O)N(C)c2cccnc21"
  pIC50: "> 7.30"
- substance_smiles: "CCN1c2ncc(CCOc3ccc(-c4cc[n+]([O-])cc4)cc3C)cc2C(=O)N(C)c2cccnc21"
  pIC50: "> 7.30"
- substance_smiles: "CCN1c2ncc(CCOc3ccc(-c4cncnc4)cc3)cc2C(=O)N(C)c2cccnc21"
  pIC50: "< 7.00"

CCN1c2ncc(CCOc3ccc(-c4cc(C(=O)O)on4)cc3)cc2C(=O)N(C)c2cccnc21 yielded pIC50 of < 7.00

CCN1c2ncc(CCOc3ccc(-c4ccc(O)c(C(=O)O)c4)cc3C)cc2C(=O)N(C)c2cccnc21 yielded pIC50 of 7.00 to 7.30

CCN1c2ncc(CCOc3ccc(-c4cc[n+](C)cc4)cc3C)cc2C(=O)N(C)c2cccnc21 yielded pIC50 of > 7.30

###

# system_name: HIV-1 RT double mutant K103N/Y181C (Human immunodeficiency virus type 1 group M subtype B, UniProt P03366, K702N/Y780C)
# Construct: HIV-1 wild type reverse transcriptase as well as the clinically significant double mutant K103N/Y181C
# assay_name: biochemical
pIC50: −log10 of the molar value.
Measured pIC50, listed per entry for reference.

- substance_smiles: "CCN1c2ncc(CCOc3ccc(-c4cc(C(=O)O)c(C)o4)cc3)cc2C(=O)N(C)c2cccnc21"
  quantity_measured: "pIC50"
  value: "< 7.00"
- substance_smiles: "CCN1c2ncc(CCOc3ccc(C(=O)Nc4cccnc4O)cc3C)cc2C(=O)N(C)c2cccnc21"
  quantity_measured: "pIC50"
  value: "> 7.30"

CCN1c2ncc(CCOc3ccc(S(=O)(=O)c4ccncc4)cc3C)cc2C(=O)N(C)c2cccnc21 yielded pIC50 of > 7.30

CCN1c2ncc(CCOc3ccc(NC(C)=O)cc3C)cc2C(=O)N(C)c2cccnc21 yielded pIC50 of 7.00 to 7.30

CCN1c2ncc(CCOc3ccc(Nc4cccc(CC(=O)O)c4)cc3C)cc2C(=O)N(C)c2cccnc21 yielded pIC50 of > 7.30

CCN1c2ncc(CCOc3ccc(-c4ncc[nH]4)cc3C)cc2C(=O)N(C)c2cccnc21 yielded pIC50 of > 7.30
